# target: Axl expressed on NCI H1299 lung large cell carcinoma cells (Homo sapiens, UniProt P30530)
# assay: Cellular phospho-Axl ELISA assay, Test (b)
# test_context: read-out: IC50 versus cellular phospho-Axl; Test (b); footnotes of Table A

{"smiles_data": "Nc1ncc(-c2ccc(C3CCNCC3)cc2)cc1-c1nc2ccccc2o1", "IC50": "~70 nM"}
{"smiles_data": "CN1CCC(n2cc(-c3cnc(N)c(-c4nc5ncc(F)cc5o4)c3)cn2)CC1", "IC50": "~234 nM"}

====

Quick reference: % Axl tyrosine kinase inhibition at 1 μM concentration of the listed items.
# target: recombinant Axl tyrosine kinase (Homo sapiens, UniProt P30530)
# Construct: encompassing amino acids 473 to 894 of Axl; GST (N); made in house; host or cells: SF126 insect cells
# assay: In vitro Axl kinase assay (AlphaScreen), Test (a)
# Assay type: biochemical
# test_context: test compound at 1 μM; first value quoted
reported_endpoint: % Axl tyrosine kinase inhibition at 1 μM concentration (%)

{"compound": "C[C@H](O)C(=O)N1CCC(n2cc(-c3cnc(N)c(-c4nc5ccccc5o4)c3)c(CO)n2)CC1 [Example 67.2]", "target": "recombinant Axl tyrosine kinase (Homo sapiens, UniProt P30530)", "measured_number": 100.0}
{"compound": "Nc1ncc(-c2cnn(CCN3CCC[C@@H]3CO)c2)cc1-c1nc2ccccc2o1 [Example 31.8]", "target": "recombinant Axl tyrosine kinase (Homo sapiens, UniProt P30530)", "measured_number": 99.7}
{"compound": "CN(C)CCNC(=O)c1cccc(-c2cnc(N)c(-c3nc4ncccc4o3)c2)c1 [Example 10A.18]", "target": "recombinant Axl tyrosine kinase (Homo sapiens, UniProt P30530)", "measured_number": 84.7}
{"compound": "Nc1ncc(-c2ccc(C(=O)N3CCC(O)CC3)cc2)cc1-c1nc2ncccc2o1 [Example 10A.13]", "target": "recombinant Axl tyrosine kinase (Homo sapiens, UniProt P30530)", "measured_number": 91.1}
{"compound": "COc1cc(-c2cnc(N)c(-c3nc4ncccc4o3)c2)ccc1OCCCN(C)C [Example 43C.10]", "target": "recombinant Axl tyrosine kinase (Homo sapiens, UniProt P30530)", "measured_number": 98.9}
{"compound": "CN1CCCC(n2cc(-c3cnc(N)c(-c4nc5ccccc5o4)c3)cn2)C1 (centres unmarked) [Example 41.2]", "target": "recombinant Axl tyrosine kinase (Homo sapiens, UniProt P30530)", "measured_number": 99.3}
{"compound": "COc1nn(C2CCN(C)CC2)cc1-c1cnc(N)c(-c2nc3ccccc3o2)c1 [Example 41.14]", "target": "recombinant Axl tyrosine kinase (Homo sapiens, UniProt P30530)", "measured_number": 100.0}
{"compound": "Nc1ncc(-c2cccc(CN3CCOCC3)c2)nc1-c1nc2ccccc2o1 [Example 20.10]", "target": "recombinant Axl tyrosine kinase (Homo sapiens, UniProt P30530)", "measured_number": 99.1}

====

Listing: % Axl tyrosine kinase inhibition at 1 μM concentration (second value, †) of selected molecules
# target: recombinant Axl tyrosine kinase (Homo sapiens)
# Construct: encompassing amino acids 473 to 894 of Axl; GST (N); made in house; host or cells: SF126 insect cells
# assay: In vitro Axl kinase assay (AlphaScreen), Test (a)
# Format: biochemical
# test_context: 1 μM; mean calculated from a larger number of replicates than the first value
reported_endpoint: % Axl tyrosine kinase inhibition at 1 μM concentration (second value, †) (%)

{"molecule": "Nc1ncc(-c2cccc(N3CCOCC3)c2)cc1-c1nc2ccccc2o1 [Example 2.49]", "measured_number": 94.5}
{"molecule": "Nc1ncc(-c2cccc(N3CCOCC3)c2)cc1-c1nc2ncccc2o1 [Example 10A.1]", "measured_number": 52.6}
{"molecule": "Nc1ncc(-c2cccc(N3CCOCC3)c2)cc1-c1nc2cnccc2o1 [Example 8A.4]", "measured_number": 86.6}
{"molecule": "Nc1ncc(-c2ccc(CN3CCOCC3)cc2)cc1-c1nc2cnccc2o1 [Example 8A.18]", "measured_number": 99.0}
{"molecule": "Nc1ncc(-c2ccc(CN3CCOCC3)cc2)cc1-c1nc2ccncc2o1 [Example 11A.1]", "measured_number": 99.4}
{"molecule": "Nc1ncc(-c2ccc(N3CCNCC3)nc2)nc1-c1nc2ccccc2o1 [Example 20.3]", "measured_number": 98.7}
{"molecule": "Nc1ncc(-c2ccc(CN3CCOCC3)cc2)nc1-c1nc2ccccc2o1 [Example 20.6]", "measured_number": 99.2}
{"molecule": "Nc1ncc(-c2cccc(N3CCNCC3)c2)nc1-c1nc2ccccc2o1 [Example 20.2]", "measured_number": 99.3}

====

The reader will find reported % Axl tyrosine kinase inhibition at 1 μM concentration values listed item by item below.
# target: recombinant Axl tyrosine kinase (Homo sapiens)
# Construct: encompassing amino acids 473 to 894 of Axl; GST (N); made in house; host or cells: SF126 insect cells
# Sequence (P30530 473-894): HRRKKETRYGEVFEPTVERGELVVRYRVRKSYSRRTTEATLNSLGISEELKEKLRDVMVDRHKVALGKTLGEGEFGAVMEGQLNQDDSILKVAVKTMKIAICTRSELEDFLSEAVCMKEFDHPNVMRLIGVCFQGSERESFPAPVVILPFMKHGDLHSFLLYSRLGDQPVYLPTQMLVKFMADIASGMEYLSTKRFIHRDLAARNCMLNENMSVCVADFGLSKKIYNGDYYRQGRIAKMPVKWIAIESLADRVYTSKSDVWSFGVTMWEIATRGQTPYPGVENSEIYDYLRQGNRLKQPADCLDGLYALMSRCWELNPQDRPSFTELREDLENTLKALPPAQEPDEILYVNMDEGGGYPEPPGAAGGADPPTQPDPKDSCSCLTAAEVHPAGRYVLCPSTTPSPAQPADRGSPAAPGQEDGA
# assay: In vitro Axl kinase assay (AlphaScreen), Test (a)
# Format: biochemical
# test_context: test compound at 1 μM; first value quoted
reported_endpoint: % Axl tyrosine kinase inhibition at 1 μM concentration (%)

{"molecule": "CN(C)CCN(C)C(=O)c1ccc(-c2cnc(N)c(-c3nc4ncccc4o3)c2)cc1 [Example 45B.1]", "measured_number": 98.1}
{"molecule": "Nc1ncc(-c2ccc(C(=O)N3CCC(O)CC3)cc2)cc1-c1nc2cnccc2o1", "measured_number": 97.1}
{"molecule": "CN1CCC(Oc2ccc(-c3cnc(N)c(-c4nc5ncccc5o4)c3)cc2)C1 (centres unmarked) [Example 43B.4]", "measured_number": 99.3}
{"molecule": "Nc1ncc(-c2ccc(OCCN3CCNCC3)cc2)cc1-c1nc2ncccc2o1 [Example 43B.29]", "measured_number": 93.6}
{"molecule": "CN1CCC(Cn2cc(-c3cnc(N)c(-c4nc5ccccc5o4)c3)cn2)C1 (centres unmarked)", "measured_number": 98.4}
{"molecule": "CN(C)CCNC(=O)c1cccc(-c2cnc(N)c(-c3nc4cccnc4o3)c2)c1", "measured_number": 75.2}
{"molecule": "Nc1ncc(-c2ccc(C(=O)NCCO)cc2)cc1-c1nc2cccnc2o1", "measured_number": 97.0}

====

# target: recombinant Axl tyrosine kinase (Homo sapiens, UniProt P30530)
# Construct: encompassing amino acids 473 to 894 of Axl; GST (N)
# assay: In vitro Axl kinase assay (AlphaScreen), Test (a)
# test_context: Test (a); read-out: IC50 versus Axl tyrosine kinase
Here the recorded IC50 is given for each entry.
reported_endpoint: IC50

{"compound": "COCc1nn(C2CCN(C(=O)[C@H](C)O)CC2)cc1-c1cnc(N)c(-c2nc3ccccc3o2)c1 [Example 67.1]", "reported_endpoint": "IC50", "result": "~0.7 nM"}
{"compound": "COCc1nn(C2CCN(C(=O)CO)CC2)cc1-c1cnc(N)c(-c2nc3ccccc3o2)c1 [Example 66]", "reported_endpoint": "IC50", "result": "~0.6 nM"}
{"compound": "COc1cccc2nc(-c3cc(-c4cn(C5CCN(C)CC5)nc4CO)cnc3N)oc12 [Example 41.42]", "reported_endpoint": "IC50", "result": "~0.2 nM"}
{"compound": "COCc1nn(C2CCNCC2)cc1-c1cnc(N)c(-c2nc3cccc(OC)c3o2)c1 [Example 62.14]", "reported_endpoint": "IC50", "result": "~0.1 nM"}
{"compound": "COCc1nn(C2CCN(C)CC2)cc1-c1cnc(N)c(-c2nc3ccccc3o2)c1 [Example 41.26]", "reported_endpoint": "IC50", "result": "~0.3 nM"}
{"compound": "Cc1nn(C2CCNCC2)cc1-c1cnc(N)c(-c2nc3ccccc3o2)c1 [Example 22]", "reported_endpoint": "IC50", "result": "~0.4 nM"}
{"compound": "CN1CCC(n2cc(-c3cnc(N)c(-c4nc5ccccc5o4)c3)c(CO)n2)CC1 [Example 41.19]", "reported_endpoint": "IC50", "result": "~0.8 nM"}
{"compound": "CN1CCC(n2cc(-c3cnc(N)c(-c4nc5ccc(F)cc5o4)c3)cn2)CC1 [Example 7.2]", "reported_endpoint": "IC50", "result": "~24 nM"}
